meta.source: ChEMBL document CHEMBL5365497

List of MIC values.
test system: Candida albicans; assay: Antifungal activity against fluconazole-resistant Candida albicans 901 assessed as fungal growth inhibition by CLSI based microdilution method; format: functional
measured_metric: MIC (µg/mL)

1) OB1OCc2cc(F)ccc21 [TAVABOROLE]	32
2) O=c1oc2ccccc2cc1COC(Cn1ccnc1)c1ccc(F)cc1F (stereo unspecified)	16
3) O=c1ccc2ccc(COC(Cn3ccnc3)c3ccc(Cl)cc3Cl)cc2o1 (stereo unspecified)	4
4) O=c1ccc2cc(COC(Cn3ccnc3)c3ccc(F)cc3F)ccc2o1 (stereo unspecified)	32
